molecular target: mouse PD-L1 (Sino Biological, Cat #50010-M08H) (mouse, UniProt Q9EP73 19-238); test: ELISA
Sequence (Q9EP73 19-238 limits assumed, stated change not applied): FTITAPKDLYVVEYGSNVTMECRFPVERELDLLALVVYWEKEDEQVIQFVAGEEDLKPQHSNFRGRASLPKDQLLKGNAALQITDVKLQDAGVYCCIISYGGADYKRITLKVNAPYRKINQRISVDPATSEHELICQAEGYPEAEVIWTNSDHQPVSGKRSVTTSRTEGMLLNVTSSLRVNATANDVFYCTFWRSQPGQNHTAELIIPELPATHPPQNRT
Endpoint: binding result

[[record]]
binder = "57B10 (antibody, human IgG1, V domains shown) VH: QEQLEESGGGLVQPEGSLTLTCTASGFSFSDDYYMSWVRQAPGKGLEWIASIYTGSLNTYYATWAKGRFTISLTSSTTVTLQMTSLTAADTATYFCARRNKNADWGHFDLWGPGTLVTVSS VL: YDMTQTPASVEVAVGGTVTIKCQASQSISTALAWYQQKPGQPPKLLIYAASTLASGVPSRFRGSGSGTDFTLTISDLECADAATYYCQQGWTVSSLDNAFGGGTEVVAM"
endpoint = "binding result"
reported_result = "no binding"

[[record]]
binder = "74A9 (antibody, human IgG1, V domains shown) VH: QSVEESGGRLVTPGTPLTLTCAVSGFSLSTYALGWVRQAPGKGLEWIGSISIGGATYYASWAKGRFTISKTSTTVDLKIASPTTEDTATYFCARNVDSIYLDAFHTWGPGTLVTVSL VL: DIVMTQTPASVEAAVGGTVTIKCQASQNIYNNLAWYQQKPGQPPKLLIYRASTLASGVPSRFKGSGSGTEYTLTISDLECDDAATYYCQTYYLTTTTNAFGGGTEVVVK"
endpoint = "binding result"
reported_result = "no binding"


Reference source for all entries: patent US20250171542A1
